Tested on: CHO
procedureDetails: Cytotoxicity against CHO cells stably expressing amyloid precursor protein at 2.5 to 10 uM after 24 hrs by MTT assay
Assay type: cell-based, Cricetulus griseus
conditionSummary: chinese hamster
testReadout: Activity

Query `CC(=O)O[C@H]([C@H]1C[C@@H](C)[C@H]2[C@@](O)(O1)[C@H](O)[C@@]1(C)C3=CC[C@H]4C(C)(C)[C@@H](O[C@@H]5OC[C@@H](O)[C@H](O)[C@H]5O)CC[C@@]45C[C@@]35CC[C@]21C)C(C)(C)O` on CHO; Activity returned: Non-Toxic

Query `COC(C)(C)[C@H]1O[C@@]23O[C@@H]1C[C@@H](C)[C@@H]2[C@@]1(C)CC[C@@]24C[C@@]25CC[C@H](O[C@@H]2OC[C@@H](O)[C@H](O)[C@H]2O)C(C)(C)[C@@H]5CC=C4[C@]1(C)[C@H]3O` on CHO; Activity returned: Non-Toxic

Query `CC(=O)O[C@@H]1[C@H](O)[C@@H](O)[C@H](O[C@H]2CC[C@]34C[C@]35CC[C@]3(C)[C@H]6[C@H](C)C[C@H]([C@@H](OC(C)=O)C(C)(C)O)O[C@@]6(O)[C@H](O)[C@@]3(C)C5=CC[C@H]4C2(C)C)O[C@@H]1CO` on CHO; Activity returned: Non-Toxic

Query `C[C@@H]1C[C@H]([C@@H](O)C(C)(C)O)O[C@H]2C(=O)[C@@]3(C)C4=C(CC[C@]3(C)[C@@H]12)C[C@]12CC[C@H](O1)C(C)(C)[C@@H]2CC4` on CHO; Activity returned: Non-Toxic

* * *

procedureDetails: Inhibition of BACE1 in CHO cells stably expressing amyloid precursor protein assessed as reduction in sAPPbeta expression after 24 hrs by Western blot analysis
Assay type: cell-based
conditionSummary: Cricetulus griseus
testReadout: pIC50
pIC50 here is simply -log10 of the concentration when that concentration is written in mol/L.

The reported value for `CC(=O)O[C@H]([C@H]1C[C@@H](C)[C@H]2[C@@](O)(O1)[C@H](O)[C@@]1(C)C3=CC[C@H]4C(C)(C)[C@@H](O[C@@H]5OC[C@@H](O)[C@H](O)[C@H]5O)CC[C@@]45C[C@@]35CC[C@]21C)C(C)(C)O` in terms of pIC50 is 5.21

The reported value for `CC(=O)O[C@@H]1[C@H](O)[C@@H](O)[C@H](O[C@H]2CC[C@]34C[C@]35CC[C@]3(C)[C@H]6[C@H](C)C[C@H]([C@@H](OC(C)=O)C(C)(C)O)O[C@@]6(O)[C@H](O)[C@@]3(C)C5=CC[C@H]4C2(C)C)O[C@@H]1CO` in terms of pIC50 is 5.08

The reported value for `C[C@@H]1C[C@H]([C@@H](O)C(C)(C)O)O[C@H]2C(=O)[C@@]3(C)C4=C(CC[C@]3(C)[C@@H]12)C[C@]12CC[C@H](O1)C(C)(C)[C@@H]2CC4` in terms of pIC50 is 5.37

The reported value for `COC(C)(C)[C@H]1O[C@@]23O[C@@H]1C[C@@H](C)[C@@H]2[C@@]1(C)CC[C@@]24C[C@@]25CC[C@H](O[C@@H]2OC[C@@H](O)[C@H](O)[C@H]2O)C(C)(C)[C@@H]5CC=C4[C@]1(C)[C@H]3O` in terms of pIC50 is 5.15
